Test: Drug level in Sprague-Dawley male rat plasma at 1800 mg/kg after 14 days
Type: ADME, organism-based
Set-up: dose 1800 mg/kg
Experimental endpoint: concentration at 336 h (µg/mL)
Your answer should be a plain number; it is taken to be in µg/mL.

Asked: Find the recorded concentration at 336 h belonging to O=C(O)c1cccc(-c2noc(-c3ccccc3F)n2)c1 and report it.
Given back: 287

====

Test: Drug level in dog plasma at 500 mg/kg after 11 days
Format: ADME, organism-based, Canis lupus familiaris
Set-up: dose 500 mg/kg
Experimental endpoint: concentration at 264 h (ng/mL)
Your answer should be a plain number; it is taken to be in ng/mL.

Asked: Find the recorded concentration at 264 h belonging to O=C(O)c1cccc(-c2noc(-c3ccccc3F)n2)c1 [ATALUREN] and report it.
Given back: 30500
